Biological target: Prostate-specific antigen (Homo sapiens, UniProt P07288)
Sequence (P07288 whole entry): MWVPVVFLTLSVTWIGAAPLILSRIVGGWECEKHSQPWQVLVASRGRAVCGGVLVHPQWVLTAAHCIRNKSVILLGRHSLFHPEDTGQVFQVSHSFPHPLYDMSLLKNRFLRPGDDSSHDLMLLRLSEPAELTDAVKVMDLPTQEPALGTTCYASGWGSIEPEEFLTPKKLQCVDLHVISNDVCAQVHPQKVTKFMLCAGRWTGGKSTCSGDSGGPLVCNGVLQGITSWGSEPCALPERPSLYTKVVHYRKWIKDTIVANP
Assay: Prodrug activation assessed as prostate specific antigen (unknown origin)-mediated drug metabolism in Tris/HCl buffer pH 8 at 100 uM measured as half life by HPLC analysis
Type: ADME
Details: pH 8, 100 µM
Starred links: 1 amine or outer side, 2 acyl side, 3 side chain; linkers in the order of their positions; H or OH if unused. Non-standard residues stand in square brackets, D forms with d. Residues, ends and D or L forms follow the SMILES beside them. *: point of attachment. X2 = NP(=O)(OCc1ccc(N*)c(F)c1)N(CCCl)CCCl; Glutaryl = O=C(CCCC(=O)[*:2])[*:1]; Hyp = O=C(O)[C@@H]1C[C@@H](O)CN1; Chg = N[C@H](C(=O)O)C1CCCCC1
PROPERTY: t1/2 (min)
Report the value in min with no unit label.

The measured t1/2 that C[C@H](NC(=O)[C@@H]1C[C@@H](O)CN1C(=O)CCCC(=O)O)C(=O)N[C@@H](CO)C(=O)N[C@H](C(=O)N[C@@H](CCC(N)=O)C(=O)Nc1ccc(COP(N)(=O)N(CCCl)CCCl)cc1F)C1CCCCC1 (stereo partly specified) (Glutaryl-[Hyp]AS[Chg]Q-X2) showed for Prostate-specific antigen (Homo sapiens, UniProt P07288) is 39
